Source: patent US20260049134A1

# testedTarget: T1, GARS-His (Sino Biological) (human, UniProt P41250 37-739, limits assumed)
# T1 construct: Bought; also called GARS1; glycyl-tRNA synthetase; not shown: His tag of the bought protein
# T1 sequence: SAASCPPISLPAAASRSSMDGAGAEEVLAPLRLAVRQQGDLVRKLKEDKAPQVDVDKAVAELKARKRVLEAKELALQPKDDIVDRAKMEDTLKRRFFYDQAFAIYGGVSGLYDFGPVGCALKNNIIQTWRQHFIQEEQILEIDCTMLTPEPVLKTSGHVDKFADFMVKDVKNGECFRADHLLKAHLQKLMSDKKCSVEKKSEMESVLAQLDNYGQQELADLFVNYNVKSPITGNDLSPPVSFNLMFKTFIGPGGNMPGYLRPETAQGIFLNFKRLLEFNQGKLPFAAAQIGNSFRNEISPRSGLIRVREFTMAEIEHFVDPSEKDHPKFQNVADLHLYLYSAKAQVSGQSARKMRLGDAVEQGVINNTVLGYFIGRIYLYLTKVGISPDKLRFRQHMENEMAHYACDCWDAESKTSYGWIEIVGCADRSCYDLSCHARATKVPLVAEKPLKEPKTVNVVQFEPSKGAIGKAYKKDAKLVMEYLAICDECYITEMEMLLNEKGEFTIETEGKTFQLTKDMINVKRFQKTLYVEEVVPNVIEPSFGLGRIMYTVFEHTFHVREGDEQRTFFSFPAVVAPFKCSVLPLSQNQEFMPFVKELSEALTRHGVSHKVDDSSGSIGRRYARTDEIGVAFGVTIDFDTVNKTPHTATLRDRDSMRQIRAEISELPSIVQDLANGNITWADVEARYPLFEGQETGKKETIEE
# testMethodNotes: ELISA on coated GARS-His, 150 ng IgG1; None 0.099
Please mark 1.0 if the recorded ELISA Absorbance (405 nm-570 nm) is equal to or greater than 0.1, and 0.0 if it falls below.

Quick check, ELISA Absorbance (405 nm-570 nm) >= 0.1? HW-17 chimeric rabbit-human IgG1 LA/LA/PG (antibody, V domains shown, Fc-silenced (L234A/L235A/P329G) IgG1, lambda; Alexa Fluor 647-labeled in single-step flow cytometry; Cluster C-1) VH: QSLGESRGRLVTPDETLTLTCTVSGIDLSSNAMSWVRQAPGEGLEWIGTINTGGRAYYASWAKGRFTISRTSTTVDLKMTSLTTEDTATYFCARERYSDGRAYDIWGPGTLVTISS VL: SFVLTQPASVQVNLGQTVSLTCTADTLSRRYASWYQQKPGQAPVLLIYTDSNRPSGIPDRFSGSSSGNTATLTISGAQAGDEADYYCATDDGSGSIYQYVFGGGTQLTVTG
0.0

Next up:
Decide: ELISA Absorbance (405 nm-570 nm) of HW-28 chimeric rabbit-human IgG1 LA/LA/PG (antibody, V domains shown, Fc-silenced (L234A/L235A/P329G) IgG1, lambda; Alexa Fluor 647-labeled in single-step flow cytometry; Cluster C-45) VH: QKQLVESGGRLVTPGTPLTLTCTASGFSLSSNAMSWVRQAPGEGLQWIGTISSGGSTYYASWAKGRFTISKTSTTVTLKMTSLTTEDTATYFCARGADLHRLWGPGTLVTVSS VL: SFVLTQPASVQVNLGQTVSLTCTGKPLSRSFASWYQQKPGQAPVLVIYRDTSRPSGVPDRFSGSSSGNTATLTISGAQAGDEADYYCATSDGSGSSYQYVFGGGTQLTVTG >= 0.1?
1.0
